- experimental.system: NK1 (Homo sapiens, UniProt P25103)
- Sequence (P25103 whole entry): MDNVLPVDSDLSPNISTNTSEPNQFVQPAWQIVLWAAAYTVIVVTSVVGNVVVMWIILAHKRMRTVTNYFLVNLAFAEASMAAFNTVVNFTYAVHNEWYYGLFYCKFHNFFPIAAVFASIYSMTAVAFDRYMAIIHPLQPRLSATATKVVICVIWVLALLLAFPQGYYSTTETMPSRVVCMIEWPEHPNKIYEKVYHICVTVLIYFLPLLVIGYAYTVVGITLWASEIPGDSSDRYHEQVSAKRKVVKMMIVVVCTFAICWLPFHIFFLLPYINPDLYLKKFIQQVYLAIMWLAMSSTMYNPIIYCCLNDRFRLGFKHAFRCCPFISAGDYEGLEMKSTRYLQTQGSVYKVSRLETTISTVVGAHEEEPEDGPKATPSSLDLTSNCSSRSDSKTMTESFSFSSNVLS
- procedure.summary: Signal transduction (ST), intracellular Ca++ FLIPR, NK1
- Format: cell-based
- assay.context: antagonist, Ca++ transient peak, read-out: NK1 pIC50 (converted)
quantity.measured: log10 of IC50 (log10 of the value in nM)
For clarity, the numbers are log10 values of IC50 expressed in nM.

q: Lookup: log10 of IC50 / NK1 (Homo sapiens, UniProt P25103) / O=C(c1ccccc1)N1CCC(N2CCN(CC3(O)CCN(C(=O)c4cc(C(F)(F)F)cc(C(F)(F)F)c4)C(Cc4ccccc4)C3)CC2)C1 (stereo not drawn) [Compound 79]
a: 1.50

q: Lookup: log10 of IC50 / NK1 (Homo sapiens, UniProt P25103) / O=C(c1cccnc1)N1CCC(N2CCN(CC3(O)CCN(C(=O)c4cc(C(F)(F)F)cc(C(F)(F)F)c4)C(Cc4ccccc4)C3)CC2)C1 (stereo not drawn) [Compound 80]
a: 1.48

q: Lookup: log10 of IC50 / NK1 (Homo sapiens, UniProt P25103) / O=C(c1ccoc1)N1CCC(N2CCN(C(=O)[C@H]3CCN(C(=O)c4cc(C(F)(F)F)cc(C(F)(F)F)c4)[C@H](Cc4ccccc4)C3)CC2)CC1 [Compound 57]
a: 1.36

q: Lookup: log10 of IC50 / NK1 (Homo sapiens, UniProt P25103) / O=C(c1ccc2ccccc2n1)N1CCC(N2CCN(CC3CCN(C(=O)c4cc(C(F)(F)F)cc(C(F)(F)F)c4)C(Cc4ccccc4)C3)CC2)CC1 (stereo not drawn) [Compound 16]
a: 2.14

q: Lookup: log10 of IC50 / NK1 (Homo sapiens, UniProt P25103) / COC1(CN2CCN(C3CCN(C(=O)c4snnc4C)C3)CC2)CCN(C(=O)c2cc(C(F)(F)F)cc(C(F)(F)F)c2)C(Cc2ccccc2)C1 (stereo not drawn) [Compound 86]
a: 1.83

q: Lookup: log10 of IC50 / NK1 (Homo sapiens, UniProt P25103) / O=C(C1CCN(C(=O)c2cc(C(F)(F)F)cc(C(F)(F)F)c2)C(Cc2ccccc2)C1)N1CCN(C2CCNCC2)CC1 (stereo not drawn) [Compound 4]
a: 2.40

q: Lookup: log10 of IC50 / NK1 (Homo sapiens, UniProt P25103) / Cn1cc(C(=O)N2CCC(N3CCN(CC4CCN(C(=O)c5cc(C(F)(F)F)cc(C(F)(F)F)c5)C(Cc5ccccc5)C4)CC3)CC2)c2ccccc21 (stereo not drawn) [Compound 40]
a: 2.54

q: Lookup: log10 of IC50 / NK1 (Homo sapiens, UniProt P25103) / Cn1c(Cl)cnc1CN1CCC(N2CCN(CC3CCN(C(=O)c4cc(C(F)(F)F)cc(C(F)(F)F)c4)C(Cc4ccccc4)C3)CC2)CC1 (stereo not drawn) [Compound 20]
a: 1.97

q: Lookup: log10 of IC50 / NK1 (Homo sapiens, UniProt P25103) / O=C(C1CCOC1)N1CCC(N2CCN(C(=O)[C@H]3CCN(C(=O)c4cc(C(F)(F)F)cc(C(F)(F)F)c4)[C@H](Cc4ccccc4)C3)CC2)C1 (stereo partly drawn) [Compound 69]
a: 1.60

q: Lookup: log10 of IC50 / NK1 (Homo sapiens, UniProt P25103) / COC1(CN2CCN(C3CCN(S(=O)(=O)c4c(C)noc4C)C3)CC2)CCN(C(=O)c2cc(C(F)(F)F)cc(C(F)(F)F)c2)C(Cc2ccccc2)C1 (stereo not drawn) [Compound 89]
a: 1.78

q: Lookup: log10 of IC50 / NK1 (Homo sapiens, UniProt P25103) / O=C(C1CC1)N1CCC(N2CCN(C(=O)[C@H]3CCN(C(=O)c4cc(C(F)(F)F)cc(C(F)(F)F)c4)[C@H](Cc4ccccc4)C3)CC2)C1 (stereo partly drawn) [Compound 68]
a: 1.12

q: Lookup: log10 of IC50 / NK1 (Homo sapiens, UniProt P25103) / O=C(c1cc2ccccc2oc1=O)N1CCC(N2CCN(C[C@H]3CCN(C(=O)c4cc(C(F)(F)F)cc(C(F)(F)F)c4)[C@H](Cc4ccccc4)C3)CC2)CC1 (relative stereo) [Compound 50]
a: 1.96

----------
- experimental.system: NK3 (Homo sapiens)
- Sequence (P29371 1-465): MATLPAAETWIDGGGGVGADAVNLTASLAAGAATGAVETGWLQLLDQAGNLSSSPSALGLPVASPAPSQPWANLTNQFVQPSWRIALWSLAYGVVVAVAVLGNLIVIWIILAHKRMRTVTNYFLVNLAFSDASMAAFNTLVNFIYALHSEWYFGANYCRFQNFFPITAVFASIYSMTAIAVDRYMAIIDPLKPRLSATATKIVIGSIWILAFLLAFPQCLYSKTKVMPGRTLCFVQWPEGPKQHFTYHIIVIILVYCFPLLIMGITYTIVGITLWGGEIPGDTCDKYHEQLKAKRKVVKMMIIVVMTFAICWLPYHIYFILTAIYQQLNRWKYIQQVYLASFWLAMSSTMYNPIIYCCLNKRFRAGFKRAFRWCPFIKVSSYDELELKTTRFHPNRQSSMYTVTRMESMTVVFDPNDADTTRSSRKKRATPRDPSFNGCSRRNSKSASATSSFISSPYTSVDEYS
- procedure.summary: Signal transduction (ST), intracellular Ca++ FLIPR, NK3
- Assay type: cell-based
- assay.context: antagonist, Ca++ transient peak, read-out: NK3 pIC50 (converted)
Field: IC50. Provide a value for each of the compounds that follow.

q: Which measured IC50 value corresponds to O=C(c1cc(C(F)(F)F)cc(C(F)(F)F)c1)N1CCC(CN2CCN(C3CCNC3)CC2)CC1Cc1ccccc1 (stereo not shown) ?
a: > 10 µM

q: Which measured IC50 value corresponds to O=C(C1CC1)N1CCC(N2CCN(C[C@H]3CCN(C(=O)c4cc(C(F)(F)F)cc(C(F)(F)F)c4)[C@H](Cc4ccccc4)C3)CC2)C1 (stereo partly shown) ?
a: > 10 µM

q: Which measured IC50 value corresponds to COC1(CN2CCN(C3CCN(C(=O)c4ccoc4)C3)CC2)CCN(C(=O)c2cc(C(F)(F)F)cc(C(F)(F)F)c2)C(Cc2ccccc2)C1 (stereo not shown) ?
a: > 10 µM

q: Which measured IC50 value corresponds to O=C(C1CCN(C(=O)c2cc(C(F)(F)F)cc(C(F)(F)F)c2)C(Cc2ccccc2)C1)N1CCN(C2CCNCC2)CC1 (stereo not shown) ?
a: > 10 µM

q: Which measured IC50 value corresponds to COC1(CN2CCN(C3CCN(C(=O)c4cccnc4)C3)CC2)CCN(C(=O)c2cc(C(F)(F)F)cc(C(F)(F)F)c2)C(Cc2ccccc2)C1 (stereo not shown) ?
a: > 10 µM

q: Which measured IC50 value corresponds to Cc1nnsc1C(=O)N1CCC(N2CCN(C[C@H]3CCN(C(=O)c4cc(C(F)(F)F)cc(C(F)(F)F)c4)[C@H](Cc4ccccc4)C3)CC2)C1 (stereo partly shown) ?
a: > 10 µM

q: Which measured IC50 value corresponds to COC1(CN2CCN(C3CCNC3)CC2)CCN(C(=O)c2cc(C(F)(F)F)cc(C(F)(F)F)c2)C(Cc2ccccc2)C1 (stereo not shown) ?
a: > 10 µM

----------
- experimental.system: NK2 (Homo sapiens)
- Sequence (P21452 whole entry): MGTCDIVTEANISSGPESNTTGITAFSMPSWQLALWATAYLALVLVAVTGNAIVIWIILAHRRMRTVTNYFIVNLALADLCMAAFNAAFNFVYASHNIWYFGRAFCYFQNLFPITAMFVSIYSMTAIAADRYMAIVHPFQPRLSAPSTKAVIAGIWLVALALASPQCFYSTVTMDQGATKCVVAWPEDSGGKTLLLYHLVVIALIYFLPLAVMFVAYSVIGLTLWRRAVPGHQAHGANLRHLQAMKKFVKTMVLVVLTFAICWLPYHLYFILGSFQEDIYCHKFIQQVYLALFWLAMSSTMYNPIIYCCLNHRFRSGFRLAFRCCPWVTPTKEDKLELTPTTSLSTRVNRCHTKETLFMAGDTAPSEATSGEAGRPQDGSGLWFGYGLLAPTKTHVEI
- procedure.summary: Signal transduction (ST), intracellular Ca++ FLIPR, NK2
- Assay type: cell-based
- assay.context: antagonist, Ca++ transient peak, read-out: NK2 pIC50 (converted)
quantity.measured: IC50

q: Which measured IC50 value corresponds to O=C(C1CC1)N1CCC(N2CCN(CC3CCN(C(=O)c4cc(C(F)(F)F)cc(C(F)(F)F)c4)C(Cc4ccccc4)C3)CC2)CC1 (stereo not drawn) ?
a: ~3.16 µM

q: Which measured IC50 value corresponds to O=C(c1cc(C(F)(F)F)cc(C(F)(F)F)c1)N1CCC(CN2CCN(C3CCNC3)CC2)CC1Cc1ccccc1 (stereo not drawn) ?
a: > 10 µM

q: Which measured IC50 value corresponds to O=C(c1cccnc1)N1CCC(N2CCN(C[C@H]3CCN(C(=O)c4cc(C(F)(F)F)cc(C(F)(F)F)c4)[C@H](Cc4ccccc4)C3)CC2)C1 (stereo partly drawn) ?
a: > 10 µM

q: Which measured IC50 value corresponds to O=C(c1cc(C(F)(F)F)cc(C(F)(F)F)c1)N1CCC(CN2CCN(C3CCN(c4cnccn4)CC3)CC2)CC1Cc1ccccc1 (stereo not drawn) ?
a: > 10 µM

q: Which measured IC50 value corresponds to O=C(c1ccccc1)N1CCC(N2CCN(C[C@H]3CCN(C(=O)c4cc(C(F)(F)F)cc(C(F)(F)F)c4)[C@H](Cc4ccccc4)C3)CC2)C1 (stereo partly drawn) ?
a: > 10 µM

q: Which measured IC50 value corresponds to Cn1c(Cl)cnc1CN1CCC(N2CCN(CC3CCN(C(=O)c4cc(C(F)(F)F)cc(C(F)(F)F)c4)C(Cc4ccccc4)C3)CC2)CC1 (stereo not drawn) ?
a: > 10 µM
